Target: Bromodomain-containing protein 9 (Homo sapiens, UniProt Q9H8M2)
Sequence (Q9H8M2 whole entry): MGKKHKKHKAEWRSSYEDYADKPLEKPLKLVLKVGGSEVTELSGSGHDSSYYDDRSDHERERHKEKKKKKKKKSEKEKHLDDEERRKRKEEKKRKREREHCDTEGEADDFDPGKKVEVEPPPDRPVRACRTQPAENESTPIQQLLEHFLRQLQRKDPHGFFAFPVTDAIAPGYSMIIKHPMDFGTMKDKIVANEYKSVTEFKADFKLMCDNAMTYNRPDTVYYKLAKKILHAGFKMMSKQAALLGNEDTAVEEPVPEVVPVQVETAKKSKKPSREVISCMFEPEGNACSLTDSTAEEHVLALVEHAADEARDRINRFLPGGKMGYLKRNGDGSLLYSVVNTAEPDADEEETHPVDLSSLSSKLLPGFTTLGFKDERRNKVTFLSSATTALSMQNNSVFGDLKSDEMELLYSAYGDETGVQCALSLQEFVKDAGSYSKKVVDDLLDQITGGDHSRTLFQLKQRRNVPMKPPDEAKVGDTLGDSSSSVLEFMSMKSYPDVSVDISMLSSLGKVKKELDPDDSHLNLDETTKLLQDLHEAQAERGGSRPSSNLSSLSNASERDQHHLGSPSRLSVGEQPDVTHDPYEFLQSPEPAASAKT
Test: Displacement of biotinylated JQ1 analog from recombinant His-tagged BRD9 (unknown origin) incubated for 10 mins by TR-FRET assay
pIC50: −log10 of the molar value.

| cpd_smiles | measured_target | pIC50 |
| --- | --- | --- |
| C=CCn1cc(-c2cccc(C(=O)N(C)C)c2)c2cc[nH]c2c1=O | Bromodomain-containing protein 9 (Homo sapiens, UniProt Q9H8M2) | 6.54 |
| Cn1ccc2cc[nH]c2c1=O | Bromodomain-containing protein 9 (Homo sapiens, UniProt Q9H8M2) | 4.86 |

====

Target: Bromodomain-containing protein 4 (Homo sapiens, UniProt O60885)
Assay: Inhibition of recombinant His-tagged BRD4 bromodomain1 (unknown origin) using biotinylated ligand incubated for 10 mins by TR-FRET assay

| cpd_smiles | IC50 |
| --- | --- |
| Cn1ccc2cc[nH]c2c1=O | 18.4 µM |
| C=CCn1cc(-c2cccc(C(=O)N(C)C)c2)c2cc[nH]c2c1=O | 6.3 µM |

====

Target: Protein polybromo-1 (Homo sapiens)
Sequence (Q86U86 whole entry): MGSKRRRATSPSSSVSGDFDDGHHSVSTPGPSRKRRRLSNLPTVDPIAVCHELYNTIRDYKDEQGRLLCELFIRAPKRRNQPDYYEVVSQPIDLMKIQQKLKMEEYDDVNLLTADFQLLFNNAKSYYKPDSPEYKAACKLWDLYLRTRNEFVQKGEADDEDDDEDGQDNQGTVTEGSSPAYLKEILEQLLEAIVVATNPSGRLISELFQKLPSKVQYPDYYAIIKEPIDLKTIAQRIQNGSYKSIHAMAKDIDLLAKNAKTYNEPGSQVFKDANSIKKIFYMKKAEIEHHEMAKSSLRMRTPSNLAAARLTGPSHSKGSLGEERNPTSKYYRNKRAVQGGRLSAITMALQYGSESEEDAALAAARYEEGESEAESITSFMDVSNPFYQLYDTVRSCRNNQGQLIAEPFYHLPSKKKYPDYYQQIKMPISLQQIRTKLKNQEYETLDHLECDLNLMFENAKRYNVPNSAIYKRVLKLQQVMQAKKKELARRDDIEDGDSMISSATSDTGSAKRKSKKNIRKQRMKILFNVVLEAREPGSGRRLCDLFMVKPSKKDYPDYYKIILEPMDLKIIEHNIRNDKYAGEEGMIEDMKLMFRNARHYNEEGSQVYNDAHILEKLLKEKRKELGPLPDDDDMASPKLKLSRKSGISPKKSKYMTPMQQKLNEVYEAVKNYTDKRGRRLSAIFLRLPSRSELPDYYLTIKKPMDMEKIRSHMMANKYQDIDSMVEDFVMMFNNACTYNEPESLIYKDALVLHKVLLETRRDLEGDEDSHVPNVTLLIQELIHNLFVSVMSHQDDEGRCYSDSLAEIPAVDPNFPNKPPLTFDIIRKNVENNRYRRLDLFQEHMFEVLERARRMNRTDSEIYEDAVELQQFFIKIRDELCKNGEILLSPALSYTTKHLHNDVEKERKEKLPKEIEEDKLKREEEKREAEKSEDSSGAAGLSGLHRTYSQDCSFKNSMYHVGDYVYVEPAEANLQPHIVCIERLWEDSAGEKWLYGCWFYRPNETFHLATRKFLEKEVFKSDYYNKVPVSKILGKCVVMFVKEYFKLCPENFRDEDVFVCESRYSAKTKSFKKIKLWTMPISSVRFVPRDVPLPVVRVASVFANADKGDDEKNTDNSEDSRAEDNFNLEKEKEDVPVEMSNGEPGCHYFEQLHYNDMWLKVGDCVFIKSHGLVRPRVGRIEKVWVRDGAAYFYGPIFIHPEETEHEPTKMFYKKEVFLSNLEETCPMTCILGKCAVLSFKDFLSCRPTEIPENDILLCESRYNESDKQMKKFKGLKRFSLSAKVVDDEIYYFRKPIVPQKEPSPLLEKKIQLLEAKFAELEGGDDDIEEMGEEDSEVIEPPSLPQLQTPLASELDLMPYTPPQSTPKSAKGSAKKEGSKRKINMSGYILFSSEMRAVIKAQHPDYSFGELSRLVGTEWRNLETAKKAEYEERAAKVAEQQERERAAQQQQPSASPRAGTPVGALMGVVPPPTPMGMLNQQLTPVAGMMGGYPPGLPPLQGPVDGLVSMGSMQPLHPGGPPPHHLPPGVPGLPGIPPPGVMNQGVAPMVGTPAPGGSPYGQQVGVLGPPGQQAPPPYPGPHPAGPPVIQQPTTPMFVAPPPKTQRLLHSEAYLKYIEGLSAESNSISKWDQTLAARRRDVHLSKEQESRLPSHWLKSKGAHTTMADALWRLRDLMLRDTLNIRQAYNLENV
Assay: Binding affinity to human partial length PBRM1(2) expressed in bacterial expression system by BROMOscan assay
pKd: −log10 of the molar value.
value_kind: pKd

| cpd_smiles | measured_target | value_kind | readout_value |
| --- | --- | --- | --- |
| CN(C)C(=O)c1cccc(-c2cn(C)c(=O)c3[nH]ccc23)c1 | Protein polybromo-1 (Homo sapiens) | pKd | 5.12 |

====

Molecular target: Bromodomain adjacent to zinc finger domain protein 2A (Homo sapiens, UniProt Q9UIF9)
Assay: Binding affinity to human partial length BAZ2A expressed in bacterial expression system by BROMOscan assay
pKd: −log10 of the molar value.

| cpd_smiles | pKd |
| --- | --- |
| CN(C)C(=O)c1cccc(-c2cn(C)c(=O)c3[nH]ccc23)c1 | 6.06 |

====

Target: Bromodomain-containing protein 4 (Homo sapiens)
Assay: Inhibition of recombinant His-tagged BRD4 bromodomain2 (unknown origin) using biotinylated ligand incubated for 10 mins by TR-FRET assay
pIC50: −log10 of the molar value.

| cpd_smiles | pIC50 |
| --- | --- |
| Cn1ccc2cc[nH]c2c1=O | 5.12 |

====

Target: Chromatin remodeling regulator CECR2 (Homo sapiens)
Experiment: Inhibition of recombinant His-tagged CECR2 (unknown origin) using biotinylated ligand incubated for 10 mins by TR-FRET assay

| cpd_smiles | IC50 |
| --- | --- |
| Cn1ccc2cc[nH]c2c1=O | 42.8 µM |
| C=CCn1cc(-c2cccc(C(=O)N(C)C)c2)c2cc[nH]c2c1=O | 0.17 µM |

====

Target: UniProt Q09472
Sequence (Q09472 whole entry): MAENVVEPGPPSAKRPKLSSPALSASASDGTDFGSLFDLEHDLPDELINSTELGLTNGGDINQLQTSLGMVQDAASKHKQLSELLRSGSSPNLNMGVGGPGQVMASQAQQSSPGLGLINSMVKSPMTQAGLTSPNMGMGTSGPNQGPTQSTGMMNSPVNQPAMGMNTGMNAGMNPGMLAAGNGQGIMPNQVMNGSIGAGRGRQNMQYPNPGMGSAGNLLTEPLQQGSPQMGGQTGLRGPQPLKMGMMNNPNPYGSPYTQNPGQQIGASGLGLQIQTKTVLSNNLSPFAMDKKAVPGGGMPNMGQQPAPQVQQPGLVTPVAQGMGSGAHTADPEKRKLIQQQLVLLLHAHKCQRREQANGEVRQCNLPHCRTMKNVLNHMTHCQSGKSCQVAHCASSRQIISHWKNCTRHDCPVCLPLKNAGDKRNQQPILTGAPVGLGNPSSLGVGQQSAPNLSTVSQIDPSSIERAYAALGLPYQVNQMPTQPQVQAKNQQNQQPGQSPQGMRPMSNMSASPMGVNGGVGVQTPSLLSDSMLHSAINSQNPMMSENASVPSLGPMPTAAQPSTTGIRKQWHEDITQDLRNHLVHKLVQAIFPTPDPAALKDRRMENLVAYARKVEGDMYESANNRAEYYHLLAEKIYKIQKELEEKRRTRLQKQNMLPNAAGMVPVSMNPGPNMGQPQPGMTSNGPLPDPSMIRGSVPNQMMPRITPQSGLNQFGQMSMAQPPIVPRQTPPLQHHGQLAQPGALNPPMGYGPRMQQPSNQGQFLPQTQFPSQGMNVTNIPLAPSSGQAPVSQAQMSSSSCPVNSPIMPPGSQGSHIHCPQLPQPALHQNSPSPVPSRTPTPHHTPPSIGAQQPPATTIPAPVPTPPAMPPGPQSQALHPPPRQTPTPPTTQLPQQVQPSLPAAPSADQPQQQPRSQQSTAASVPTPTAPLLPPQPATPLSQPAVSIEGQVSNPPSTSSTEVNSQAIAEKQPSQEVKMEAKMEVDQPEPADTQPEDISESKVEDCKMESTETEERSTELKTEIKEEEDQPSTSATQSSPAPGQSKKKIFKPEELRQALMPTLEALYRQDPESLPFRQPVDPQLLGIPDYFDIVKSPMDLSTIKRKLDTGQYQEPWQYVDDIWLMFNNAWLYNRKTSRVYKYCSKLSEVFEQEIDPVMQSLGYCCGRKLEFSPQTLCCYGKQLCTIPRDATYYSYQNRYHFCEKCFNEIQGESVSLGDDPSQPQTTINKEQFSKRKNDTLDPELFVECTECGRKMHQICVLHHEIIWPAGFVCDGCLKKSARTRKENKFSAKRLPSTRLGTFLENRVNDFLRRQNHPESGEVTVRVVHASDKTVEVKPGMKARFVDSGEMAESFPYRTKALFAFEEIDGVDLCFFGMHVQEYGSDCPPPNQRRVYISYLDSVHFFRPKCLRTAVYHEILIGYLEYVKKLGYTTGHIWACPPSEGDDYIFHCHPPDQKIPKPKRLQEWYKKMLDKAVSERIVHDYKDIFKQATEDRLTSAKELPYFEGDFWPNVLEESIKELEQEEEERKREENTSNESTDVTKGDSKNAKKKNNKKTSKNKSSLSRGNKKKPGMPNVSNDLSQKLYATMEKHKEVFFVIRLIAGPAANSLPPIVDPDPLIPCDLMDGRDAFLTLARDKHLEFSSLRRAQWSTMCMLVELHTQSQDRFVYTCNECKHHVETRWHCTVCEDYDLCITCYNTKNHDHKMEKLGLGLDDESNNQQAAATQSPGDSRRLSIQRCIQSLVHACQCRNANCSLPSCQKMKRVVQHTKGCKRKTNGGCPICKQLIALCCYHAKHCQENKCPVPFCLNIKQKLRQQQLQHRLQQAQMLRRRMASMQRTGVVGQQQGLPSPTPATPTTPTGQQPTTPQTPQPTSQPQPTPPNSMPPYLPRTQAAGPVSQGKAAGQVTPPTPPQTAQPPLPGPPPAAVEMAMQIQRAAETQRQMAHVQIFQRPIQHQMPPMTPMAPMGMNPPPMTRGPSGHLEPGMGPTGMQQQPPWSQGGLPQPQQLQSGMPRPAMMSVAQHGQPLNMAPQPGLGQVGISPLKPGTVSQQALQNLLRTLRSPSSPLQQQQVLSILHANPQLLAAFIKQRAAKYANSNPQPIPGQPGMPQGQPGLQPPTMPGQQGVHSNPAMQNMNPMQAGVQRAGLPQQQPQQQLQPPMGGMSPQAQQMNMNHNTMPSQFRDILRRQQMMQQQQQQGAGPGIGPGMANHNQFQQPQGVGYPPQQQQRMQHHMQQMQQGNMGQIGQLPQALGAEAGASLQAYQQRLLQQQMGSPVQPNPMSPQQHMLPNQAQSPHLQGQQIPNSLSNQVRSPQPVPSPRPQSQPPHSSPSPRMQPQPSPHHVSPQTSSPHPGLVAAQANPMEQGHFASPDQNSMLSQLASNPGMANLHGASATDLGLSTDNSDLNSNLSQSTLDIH
Test: Binding affinity to human partial length EP300 expressed in bacterial expression system by BROMOscan assay
pKd: −log10 of the molar value.

| cpd_smiles | pKd |
| --- | --- |
| CN(C)C(=O)c1cccc(-c2cn(C)c(=O)c3[nH]ccc23)c1 | 6.57 |

====

Molecular target: Peregrin (Homo sapiens, UniProt P55201)
Sequence (P55201 whole entry): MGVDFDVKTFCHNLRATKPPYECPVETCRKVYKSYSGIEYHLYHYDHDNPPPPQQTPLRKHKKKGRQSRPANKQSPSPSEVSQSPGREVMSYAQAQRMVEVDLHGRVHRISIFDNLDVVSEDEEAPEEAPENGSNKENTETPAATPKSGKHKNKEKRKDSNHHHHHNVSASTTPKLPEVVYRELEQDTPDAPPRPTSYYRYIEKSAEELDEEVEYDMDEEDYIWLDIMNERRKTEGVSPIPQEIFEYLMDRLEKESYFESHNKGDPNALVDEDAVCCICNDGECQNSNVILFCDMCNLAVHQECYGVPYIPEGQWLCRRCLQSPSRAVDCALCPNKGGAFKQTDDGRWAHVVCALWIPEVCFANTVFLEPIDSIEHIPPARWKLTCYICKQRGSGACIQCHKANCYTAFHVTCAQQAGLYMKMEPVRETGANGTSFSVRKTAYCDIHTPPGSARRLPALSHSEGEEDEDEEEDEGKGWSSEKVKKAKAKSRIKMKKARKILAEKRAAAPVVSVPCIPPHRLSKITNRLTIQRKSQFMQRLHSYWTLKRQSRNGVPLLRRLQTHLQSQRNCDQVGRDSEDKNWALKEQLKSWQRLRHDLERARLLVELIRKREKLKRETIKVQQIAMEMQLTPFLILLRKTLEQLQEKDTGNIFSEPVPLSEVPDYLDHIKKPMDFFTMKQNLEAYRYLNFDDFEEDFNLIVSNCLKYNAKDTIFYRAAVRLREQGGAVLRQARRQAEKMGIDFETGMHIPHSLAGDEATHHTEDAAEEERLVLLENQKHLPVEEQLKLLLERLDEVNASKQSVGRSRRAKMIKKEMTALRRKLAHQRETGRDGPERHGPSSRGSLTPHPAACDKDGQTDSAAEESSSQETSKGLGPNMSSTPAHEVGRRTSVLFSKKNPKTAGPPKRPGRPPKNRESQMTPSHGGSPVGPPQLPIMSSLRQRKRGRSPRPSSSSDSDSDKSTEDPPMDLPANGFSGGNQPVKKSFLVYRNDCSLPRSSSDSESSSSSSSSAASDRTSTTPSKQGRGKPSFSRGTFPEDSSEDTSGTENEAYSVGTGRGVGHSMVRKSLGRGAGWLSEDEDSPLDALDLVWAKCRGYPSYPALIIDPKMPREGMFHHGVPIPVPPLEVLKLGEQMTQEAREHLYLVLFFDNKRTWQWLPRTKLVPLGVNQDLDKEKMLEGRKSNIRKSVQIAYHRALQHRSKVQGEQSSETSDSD
Experiment: Displacement of biotinylated JQ1 analog from recombinant His-tagged BRPF1 (unknown origin) incubated for 10 mins by TR-FRET assay
pIC50: −log10 of the molar value.
value_kind: pIC50

| cpd_smiles | value_kind | readout_value |
| --- | --- | --- |
| C/C=C/Cn1cc(-c2cccc(C(=O)N(C)C)c2)c2cc[nH]c2c1=O | pIC50 | < 4.70 |
| C=CCCn1cc(-c2cccc(C(=O)N(C)C)c2)c2cc[nH]c2c1=O | pIC50 | < 4.70 |
| C=CCn1cc(-c2cccc(C(=O)N(C)C)c2)c2cc[nH]c2c1=O | pIC50 | < 4.70 |
